# Experimental target: EGFR (Homo sapiens, UniProt P00533)
# Construct: host or cells: A431
# Sequence (P00533 25-1210): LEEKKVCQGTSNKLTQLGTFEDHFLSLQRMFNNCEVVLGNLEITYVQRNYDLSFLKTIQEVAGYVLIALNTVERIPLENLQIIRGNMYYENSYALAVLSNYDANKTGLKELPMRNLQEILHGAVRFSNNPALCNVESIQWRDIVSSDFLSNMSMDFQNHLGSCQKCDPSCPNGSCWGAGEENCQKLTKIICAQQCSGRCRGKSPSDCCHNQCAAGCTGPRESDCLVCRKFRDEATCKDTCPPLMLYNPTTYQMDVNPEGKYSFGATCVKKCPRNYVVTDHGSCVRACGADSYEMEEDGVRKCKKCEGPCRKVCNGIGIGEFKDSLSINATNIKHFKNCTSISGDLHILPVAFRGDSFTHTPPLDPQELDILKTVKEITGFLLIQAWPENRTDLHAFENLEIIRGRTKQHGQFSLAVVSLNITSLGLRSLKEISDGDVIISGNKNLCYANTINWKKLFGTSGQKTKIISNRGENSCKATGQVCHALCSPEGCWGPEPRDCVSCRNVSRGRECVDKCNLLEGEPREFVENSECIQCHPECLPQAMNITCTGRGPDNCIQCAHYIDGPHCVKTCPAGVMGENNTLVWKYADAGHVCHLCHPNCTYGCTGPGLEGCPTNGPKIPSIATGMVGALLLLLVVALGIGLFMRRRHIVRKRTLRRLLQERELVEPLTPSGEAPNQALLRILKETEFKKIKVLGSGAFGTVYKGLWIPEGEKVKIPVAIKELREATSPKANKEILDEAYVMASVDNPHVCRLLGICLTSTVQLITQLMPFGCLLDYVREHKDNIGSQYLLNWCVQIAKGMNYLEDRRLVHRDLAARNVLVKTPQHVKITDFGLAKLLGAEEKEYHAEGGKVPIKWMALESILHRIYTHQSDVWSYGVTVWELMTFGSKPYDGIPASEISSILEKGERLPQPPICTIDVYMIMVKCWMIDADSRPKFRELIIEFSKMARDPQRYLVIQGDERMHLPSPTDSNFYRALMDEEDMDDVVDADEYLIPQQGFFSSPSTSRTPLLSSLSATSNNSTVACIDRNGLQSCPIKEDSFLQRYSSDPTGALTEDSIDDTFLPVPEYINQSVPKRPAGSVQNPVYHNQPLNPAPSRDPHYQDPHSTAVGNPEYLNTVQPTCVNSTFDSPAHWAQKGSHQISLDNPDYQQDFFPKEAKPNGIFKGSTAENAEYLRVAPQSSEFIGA
# Test: EGFR in-cell Western (ICW) screening protocol (EGFR inhibition assay)
# Format: cell-based
# Design: unit not given here
# Experimental setup: ICW assay, run 1
Counter-ions that a name gives are not always drawn.
Record form. Attribute: ICW 1. Fill in for each entry.
Respond using a number only.

Q: What does the data say about its ICW 1? Entry: Cc1ccc2c(C)nc(Nc3nc(-c4ccccc4)cc(=O)[nH]3)nc2c1 [10381 + TFA]
Ans: 87.04

Q: What does the data say about its ICW 1? Entry: CCCc1c(C)nc(Nc2nc(C)c3cccc(OC)c3n2)[nH]c1=O [11773 + TFA]
Ans: 43.74

Q: What does the data say about its ICW 1? Entry: COc1cccc2c(C)nc(Nc3nc(C)c(C)c(=O)[nH]3)nc12 [compound 12615]
Ans: 31.59

Q: What does the data say about its ICW 1? Entry: Cc1ccc2nc(Nc3nc(=O)c(Cc4ccccc4)c(C)[nH]3)nc(C)c2c1 [compound 11294]
Ans: 29.81

Q: What does the data say about its ICW 1? Entry: CCCc1c(C)nc(Nc2nc(C)c3cccc(C)c3n2)[nH]c1=O [12625 + TFA]
Ans: 30.45

Q: What does the data say about its ICW 1? Entry: CCCc1c(-c2ccccc2)nc(Nc2nc(C)c3ccccc3n2)[nH]c1=O [compound 12732]
Ans: 79.12

Q: What does the data say about its ICW 1? Entry: CCCc1c(-c2ccccc2)nc(Nc2nc(C)c3ccccc3n2)[nH]c1=O [compound 12609]
Ans: 42.02

----------
# Tested on: MDBK line
# Test: MTT Cell Proliferation Assay, MDBK cells
# Assay type: cell-based, bovine
# Experimental setup: Bos taurus, MDBK, second value of 'a/b (c)'; taken as MDBK cells; read-out: MTT Screen, second value of cell
Readout name: IC50 (µM)
Give just the numeric value; µM need not be written.

Q: What does the data say about its IC50? Entry: Cc1ccccc1C(=O)NC(=S)Nc1ccc(S(=O)(=O)Nc2ccccc2)cc1 [AD4-10706]
Ans: 23.1

Q: What does the data say about its IC50? Entry: CCCC(=O)NC(=S)Nc1ccc(S(=O)(=O)Nc2ccc(OCC)cc2)cc1 [AD4-12183]
Ans: 17.2

Q: What does the data say about its IC50? Entry: Cc1ccc(NS(=O)(=O)c2ccc(NC(=S)NC(=O)C3CCCCC3)cc2)cc1C [AD4-10708]
Ans: 35.9

Q: What does the data say about its IC50? Entry: O=C(NC(=S)Nc1ccc(S(=O)(=O)N2CCCCC2)cc1)C1CCC1 [AD4-11421]
Ans: 43.5

Q: What does the data say about its IC50? Entry: COc1ccccc1/C=C/C(=O)NC(=S)Nc1ccc(S(=O)(=O)N2CCN(C)CC2)cc1 [AD4-12265]
Ans: 35.1

Q: What does the data say about its IC50? Entry: CC(=O)NC(=S)Nc1ccc(S(=O)(=O)N2CCc3ccccc32)cc1 [AD4-10623]
Ans: 38.3

Q: What does the data say about its IC50? Entry: CCc1nnc(NS(=O)(=O)c2ccc(NC(=S)NC(=O)/C=C/c3ccccc3)cc2)s1 [AD4-11367]
Ans: 43.6

Q: What does the data say about its IC50? Entry: CC(C)(C)C(=O)NC(=S)Nc1ccc(S(=O)(=O)NCCc2ccccc2)cc1 [AD4-10613]
Ans: 11.8

Q: What does the data say about its IC50? Entry: COc1ccc(/C=C/C(=O)NC(=S)Nc2ccc(S(=O)(=O)Nc3cc(OC)nc(OC)n3)cc2)cc1 [AD4-11645]
Ans: 47

Q: What does the data say about its IC50? Entry: O=C(COc1ccc(Cl)cc1Cl)NC(=S)Nc1ccc(S(=O)(=O)NC2CCCCC2)cc1 [AD4-12075]
Ans: 40.1

Q: What does the data say about its IC50? Entry: Cc1cc(C)nc(NS(=O)(=O)c2ccc(NC(=S)NC(=O)/C=C/c3ccc(Cl)cc3)cc2)n1 [AD4-11648]
Ans: 45.1

----------
# Experimental target: EGFR (Homo sapiens)
# Construct: host or cells: A431
# Test: EGFR in-cell Western (ICW) screening protocol (EGFR inhibition assay)
# Type: cell-based
# Experimental: The following example describes general EGFR in-cell Western (ICW) screening protocol. Methods are according to Chen et al. (2005) Analytical Biochemistry 338, 136-142 (incorporated herein by reference), except as otherwise noted. Cell Plates: A431 cells (ATCC # CRL-1555) were grown in Dulbecco's Modified Eagle Medium (DMEM; ATCC #30-2002) supplemented with 10% fetal bovine serum, 105 units/ml pen/strep (Invitrogen #15140155) and 2.1 mM L-glutamine (ATCC #30-2214). […]
Readout name: ICW Screen (ICW Inhibition)

Q: What does the data say about its ICW Screen (ICW Inhibition)? Entry: "COc1cc(NS(=O)(=O)c2ccc(NC(=S)NC(=O)CCc3ccccc3)cc2)nc(OC)n1"
Ans: 26.497

Q: What does the data say about its ICW Screen (ICW Inhibition)? Entry: "CCc1nnc(NS(=O)(=O)c2ccc(NC(=S)NC(=O)/C=C/c3ccc(OC)cc3)cc2)s1"
Ans: 33.491

Q: What does the data say about its ICW Screen (ICW Inhibition)? Entry: "O=C(NC(=S)Nc1ccc(S(=O)(=O)N2CCCCCC2)cc1)C1CCC1"
Ans: 41.204

----------
# Experimental target: EGFR (Homo sapiens, UniProt P00533)
# Construct: host or cells: A431
# Test: EGFR in-cell Western (ICW) screening protocol (EGFR inhibition assay)
# Format: cell-based
# Experimental setup: Table 10; % Inhibition of EGF dependent EGFR phosphorylation in A431 cells; compound 125 μM in assay
Entries are sorted into classes by ICW assay as follows: low-valued (below 40), mid-valued (40 to below 70), high-valued (70 or more)

Q: # bin label for CCc1ccc(NC(=S)Nc2ccc(S(=O)(=O)Nc3ccc(Cl)c(Cl)c3)cc2)cc1 [AD4-12430]
Ans: high-valued

Q: # bin label for O=S(=O)(Nc1cc(Cl)cc(Cl)c1)c1ccc(NC(=S)Nc2cccc(C(F)(F)F)c2)cc1 [AD4-12509]
Ans: high-valued

Q: # bin label for CCc1ccc(NC(=S)Nc2ccc(S(=O)(=O)Nc3cc(Cl)cc(Cl)c3)cc2)cc1 [AD4-12436]
Ans: high-valued

Q: # bin label for COc1ccccc1NC(=S)Nc1ccc(S(=O)(=O)Nc2ccc(Cl)cc2)cc1 [AD4-12502]
Ans: low-valued

Q: # bin label for CCOc1ccccc1NC(=S)Nc1ccc(S(=O)(=O)Nc2ccc(Cl)cc2)cc1 [AD4-12521]
Ans: mid-valued

Q: # bin label for Cc1ccccc1NS(=O)(=O)c1ccc(NC(=S)Nc2ccc(F)c(Cl)c2)cc1 [AD4-12477]
Ans: mid-valued

Q: # bin label for CC1CCc2cc(F)ccc2N1S(=O)(=O)c1ccc(NC(=S)Nc2cccc(F)c2)cc1 (stereo not drawn) [AD4-12837]
Ans: low-valued

Q: # bin label for O=S(=O)(Nc1ccccc1)c1ccc(NC(=S)Nc2ccc(Cl)c(Cl)c2)cc1 [AD4-12833]
Ans: high-valued

Q: # bin label for O=S(=O)(Nc1ccccc1)c1ccc(NC(=S)Nc2ccc(F)c(Cl)c2)cc1 [AD4-12851]
Ans: high-valued

Q: # bin label for CC1CCc2cc(F)ccc2N1S(=O)(=O)c1ccc(NC(=S)Nc2ccc(F)cc2)cc1 (stereo not drawn) [AD4-12850]
Ans: mid-valued

Q: # bin label for O=S(=O)(Nc1ccc(Cl)cc1)c1ccc(NC(=S)Nc2cccc(Cl)c2)cc1 [AD4-12494]
Ans: high-valued

Q: # bin label for CCN(c1ccccc1)S(=O)(=O)c1ccc(NC(=S)Nc2ccccc2)cc1 [AD4-12389]
Ans: high-valued

Q: # bin label for O=S(=O)(Nc1ccc(Cl)cc1)c1ccc(NC(=S)Nc2ccc(Br)cc2)cc1 [AD4-12504]
Ans: high-valued

Q: # bin label for CC(=O)c1ccc(NC(=S)Nc2ccc(S(=O)(=O)Nc3ccccc3C)cc2)cc1 [AD4-10700]
Ans: mid-valued

Q: # bin label for Cc1cc(C)c(NS(=O)(=O)c2ccc(NC(=S)Nc3ccc(S(N)(=O)=O)cc3)cc2)c(C)c1 [AD4-12250]
Ans: low-valued

Q: # bin label for CC1CCc2cc(F)ccc2N1S(=O)(=O)c1ccc(NC(=S)Nc2cc(Cl)cc(Cl)c2)cc1 (stereo not drawn) [AD4-12843]
Ans: mid-valued

Q: # bin label for CCOc1ccc(NC(=S)Nc2ccc(S(=O)(=O)Nc3cc(Cl)cc(Cl)c3)cc2)cc1 [AD4-12529]
Ans: mid-valued

Q: # bin label for COc1ccc(NC(=S)Nc2ccc(S(=O)(=O)Nc3ccccc3C)cc2)cc1OC [AD4-12527]
Ans: low-valued

Q: # bin label for Cc1ccc(NC(=S)Nc2ccc(S(=O)(=O)Nc3cc(Cl)cc(Cl)c3)cc2)cc1 [AD4-12460]
Ans: mid-valued

Q: # bin label for O=S(=O)(Nc1ccc(Cl)c(Cl)c1)c1ccc(NC(=S)Nc2cccc(F)c2)cc1 [AD4-12431]
Ans: low-valued

Q: # bin label for CC(=O)c1cccc(NC(=S)Nc2ccc(S(=O)(=O)Nc3c(C)cc(C)cc3C)cc2)c1 [AD4-12391]
Ans: low-valued

Q: # bin label for CC(C)c1ccc(NC(=S)Nc2ccc(S(=O)(=O)Nc3ccc(Cl)cc3)cc2)cc1 [AD4-12503]
Ans: high-valued

Q: # bin label for CCOc1ccccc1NC(=S)Nc1ccc(S(=O)(=O)Nc2c(C)cc(C)cc2C)cc1 [AD4-12465]
Ans: low-valued

Q: # bin label for Cc1ccc(NC(=S)Nc2ccc(S(=O)(=O)Nc3ccccc3)cc2)cc1Cl [AD4-12844]
Ans: high-valued

Q: # bin label for CCOc1ccccc1NC(=S)Nc1ccc(S(=O)(=O)Nc2ccc(Cl)c(Cl)c2)cc1 [AD4-12443]
Ans: mid-valued

Q: # bin label for Cc1ccc(NC(=S)Nc2ccc(S(=O)(=O)Nc3ccc(Cl)c(Cl)c3)cc2)cc1 [AD4-12438]
Ans: mid-valued

Q: # bin label for O=S(=O)(Nc1ccccc1)c1ccc(NC(=S)Nc2ccc(Cl)cc2Cl)cc1 [AD4-12822]
Ans: mid-valued

Q: # bin label for CCN(c1ccccc1)S(=O)(=O)c1ccc(NC(=S)Nc2ccccc2)cc1 [AD4-11430]
Ans: low-valued

Data origin: patent US20140179681A1
